Would you mind telling me the reported HSA synergy score of each entry?
- Tested on: SNB75
- assay.notes: HSA synergy score (Combenefit); higher = more synergy
- condition.details: exposure time: 72 h
// response body must contain only the number

// returns HSA synergy score for CO[C@H]1C[C@@H]2CC[C@@H](C)[C@@](O)(O2)C(=O)C(=O)N2CCCC[C@H]2C(=O)O[C@H]([C@H](C)C[C@@H]2CC[C@@H](O)[C@H](OC)C2)CC(=O)[C@H](C)/C=C(\C)[C@@H](O)[C@@H](OC)C(=O)[C@H](C)C[C@H](C)/C=C/C=C/C=C/1C [Rapamycin] + C=CCc1cccc(/C=N/NC(=O)CN2CCN(Cc3ccccc3)CC2)c1O [PAC-1] with SNB75; value = 8.87

// returns HSA synergy score for CC(=O)O[C@@]12CO[C@@H]1C[C@H](O)[C@@]1(C)C(=O)[C@H](O)C3=C(C)[C@@H](OC(=O)[C@H](O)[C@@H](NC(=O)OC(C)(C)C)c4ccccc4)C[C@@](O)([C@@H](OC(=O)c4ccccc4)[C@H]21)C3(C)C [Docetaxel] + CCC(=O)N1CCN(c2ccc(-n3c(=O)ccc4cnc5ccc(-c6cnc7ccccc7c6)cc5c43)cc2C(F)(F)F)CC1 [Torin1] with SNB75; value = 3.38

// returns HSA synergy score for Nc1ccn([C@@H]2O[C@H](CO)[C@@H](O)C2(F)F)c(=O)n1 [Gemcitabine] + CO[C@H]1C[C@@H]2CC[C@@H](C)[C@@](O)(O2)C(=O)C(=O)N2CCCC[C@H]2C(=O)O[C@H]([C@H](C)C[C@@H]2CC[C@@H](O)[C@H](OC)C2)CC(=O)[C@H](C)/C=C(\C)[C@@H](O)[C@@H](OC)C(=O)[C@H](C)C[C@H](C)/C=C/C=C/C=C/1C [Rapamycin] with SNB75; value = 4.52

====

Would you mind telling me the reported Loewe synergy score of each entry?
- Tested on: SNB75
- assay.notes: Loewe synergy score (Combenefit); higher = more synergy; extreme values may be limits of the assay
- condition.details: exposure time: 72 h
// response body must contain only the number

Memo: C#Cc1cccc(Nc2ncnc3cc(OCCOC)c(OCCOC)cc23)c1 [Erlotinib] + CCCCCCCCCCCC1=C(O)C(=O)C=C(O)C1=O [Embelin] , reported Loewe synergy score: 1.7

Memo: CO[C@H]1C[C@@H]2CC[C@@H](C)[C@@](O)(O2)C(=O)C(=O)N2CCCC[C@H]2C(=O)O[C@H]([C@H](C)C[C@@H]2CC[C@@H](O)[C@H](OC)C2)CC(=O)[C@H](C)/C=C(\C)[C@@H](O)[C@@H](OC)C(=O)[C@H](C)C[C@H](C)/C=C/C=C/C=C/1C [Rapamycin] + C=CCc1cccc(/C=N/NC(=O)CN2CCN(Cc3ccccc3)CC2)c1O [PAC-1] , reported Loewe synergy score: 7.67

Memo: CCC(=O)N1CCN(c2ccc(-n3c(=O)ccc4cnc5ccc(-c6cnc7ccccc7c6)cc5c43)cc2C(F)(F)F)CC1 [Torin1] + CCCCCCCCCCCC1=C(O)C(=O)C=C(O)C1=O [Embelin] , reported Loewe synergy score: 1.4

Memo: CCC(=O)N1CCN(c2ccc(-n3c(=O)ccc4cnc5ccc(-c6cnc7ccccc7c6)cc5c43)cc2C(F)(F)F)CC1 [Torin1] + C#Cc1cccc(Nc2ncnc3cc(OCCOC)c(OCCOC)cc23)c1 [Erlotinib] , reported Loewe synergy score: 10.2

====

- System: SF539
- condition.details: exposure time: 72 h
assay.readout: IC50 (absolute, viability) (µM)
# unit: µM | format: bare number

Memo: CC(=O)O[C@@]12CO[C@@H]1C[C@H](O)[C@@]1(C)C(=O)[C@H](O)C3=C(C)[C@@H](OC(=O)[C@H](O)[C@@H](NC(=O)OC(C)(C)C)c4ccccc4)C[C@@](O)([C@@H](OC(=O)c4ccccc4)[C@H]21)C3(C)C [Docetaxel] , reported IC50 (absolute, viability): 0.000628

Memo: C=CCc1cccc(/C=N/NC(=O)CN2CCN(Cc3ccccc3)CC2)c1O [PAC-1] , reported IC50 (absolute, viability): 3.06

Memo: Nc1ccn([C@@H]2O[C@H](CO)[C@@H](O)C2(F)F)c(=O)n1 [Gemcitabine] , reported IC50 (absolute, viability): 0.182

Memo: CCC(=O)N1CCN(c2ccc(-n3c(=O)ccc4cnc5ccc(-c6cnc7ccccc7c6)cc5c43)cc2C(F)(F)F)CC1 [Torin1] , reported IC50 (absolute, viability): 0.028

Memo: C#Cc1cccc(Nc2ncnc3cc(OCCOC)c(OCCOC)cc23)c1 [Erlotinib] , reported IC50 (absolute, viability): 25

Memo: CCOc1nc(NC(=O)Cc2cc(OC)ccc2OC)cc(N)c1C#N [JNK inhibitor VIII] , reported IC50 (absolute, viability): 7.09

Memo: Cc1cc([C@@H](C)Nc2ccccc2C(=O)O)c2nc(N3CCOCC3)cc(=O)n2c1 [AZD6482] , reported IC50 (absolute, viability): 4.86

Memo: N#CC(c1ccnc(NCCc2cccnc2)n1)c1nc2ccccc2s1 (stereo not given) , reported IC50 (absolute, viability): 3.71

====

- Test system: U118
- assay.notes: Bliss synergy score (Combenefit); higher = more synergy; extreme values may be limits of the assay
- condition.details: exposure time: 72 h
Would you mind telling me the reported Bliss synergy score of each entry?
// response body must contain only the number

Memo: CC(=O)O[C@@]12CO[C@@H]1C[C@H](O)[C@@]1(C)C(=O)[C@H](O)C3=C(C)[C@@H](OC(=O)[C@H](O)[C@@H](NC(=O)OC(C)(C)C)c4ccccc4)C[C@@](O)([C@@H](OC(=O)c4ccccc4)[C@H]21)C3(C)C [Docetaxel] + N#CC(c1ccnc(NCCc2cccnc2)n1)c1nc2ccccc2s1 [AS601245] , reported Bliss synergy score: 0.0703

Memo: CCC(=O)N1CCN(c2ccc(-n3c(=O)ccc4cnc5ccc(-c6cnc7ccccc7c6)cc5c43)cc2C(F)(F)F)CC1 [Torin1] + O=c1[nH]c2ccccc2n1C1CCN(Cc2ccc(-c3[nH]c4cc5ncnc5cc4nc3-c3ccccc3)cc2)CC1 [Akt inhibitor VIII] , reported Bliss synergy score: 5.39

====

- Test system: U118
- assay.notes: Loewe synergy score (Combenefit); higher = more synergy; extreme values may be limits of the assay
- condition.details: exposure time: 72 h
Would you mind telling me the reported Loewe synergy score of each entry?

Memo: CC(=O)O[C@@]12CO[C@@H]1C[C@H](O)[C@@]1(C)C(=O)[C@H](O)C3=C(C)[C@@H](OC(=O)[C@H](O)[C@@H](NC(=O)OC(C)(C)C)c4ccccc4)C[C@@](O)([C@@H](OC(=O)c4ccccc4)[C@H]21)C3(C)C [Docetaxel] + N#CC(c1ccnc(NCCc2cccnc2)n1)c1nc2ccccc2s1 [AS601245] , reported Loewe synergy score: 0.96

Memo: CCCCCCCCCCCC1=C(O)C(=O)C=C(O)C1=O [Embelin] + O=c1[nH]c2ccccc2n1C1CCN(Cc2ccc(-c3[nH]c4cc5ncnc5cc4nc3-c3ccccc3)cc2)CC1 [Akt inhibitor VIII] , reported Loewe synergy score: 1.18

Memo: Nc1ccn([C@@H]2O[C@H](CO)[C@@H](O)C2(F)F)c(=O)n1 [Gemcitabine] + C[C@@H](Oc1cc(-c2cnn(C3CCNCC3)c2)cnc1N)c1c(Cl)ccc(F)c1Cl [Crizotinib] , reported Loewe synergy score: 0.443

Memo: C[C@@H](Oc1cc(-c2cnn(C3CCNCC3)c2)cnc1N)c1c(Cl)ccc(F)c1Cl [Crizotinib] + C=CCc1cccc(/C=N/NC(=O)CN2CCN(Cc3ccccc3)CC2)c1O [PAC-1] , reported Loewe synergy score: 0.609

Memo: O=c1[nH]c2ccccc2n1C1CCN(Cc2ccc(-c3[nH]c4cc5ncnc5cc4nc3-c3ccccc3)cc2)CC1 [Akt inhibitor VIII] + N#CC(c1ccnc(NCCc2cccnc2)n1)c1nc2ccccc2s1 [AS601245] , reported Loewe synergy score: 7.71

Memo: CO[C@H]1C[C@@H]2CC[C@@H](C)[C@@](O)(O2)C(=O)C(=O)N2CCCC[C@H]2C(=O)O[C@H]([C@H](C)C[C@@H]2CC[C@@H](O)[C@H](OC)C2)CC(=O)[C@H](C)/C=C(\C)[C@@H](O)[C@@H](OC)C(=O)[C@H](C)C[C@H](C)/C=C/C=C/C=C/1C [Rapamycin] + C=CCc1cccc(/C=N/NC(=O)CN2CCN(Cc3ccccc3)CC2)c1O [PAC-1] , reported Loewe synergy score: 3.97

Memo: CCC(=O)N1CCN(c2ccc(-n3c(=O)ccc4cnc5ccc(-c6cnc7ccccc7c6)cc5c43)cc2C(F)(F)F)CC1 [Torin1] + O=c1[nH]c2ccccc2n1C1CCN(Cc2ccc(-c3[nH]c4cc5ncnc5cc4nc3-c3ccccc3)cc2)CC1 [Akt inhibitor VIII] , reported Loewe synergy score: 9.44

Memo: CC(=O)O[C@@]12CO[C@@H]1C[C@H](O)[C@@]1(C)C(=O)[C@H](O)C3=C(C)[C@@H](OC(=O)[C@H](O)[C@@H](NC(=O)OC(C)(C)C)c4ccccc4)C[C@@](O)([C@@H](OC(=O)c4ccccc4)[C@H]21)C3(C)C [Docetaxel] + CCCCCCCCCCCC1=C(O)C(=O)C=C(O)C1=O [Embelin] , reported Loewe synergy score: 0.129

Memo: CO[C@H]1C[C@@H]2CC[C@@H](C)[C@@](O)(O2)C(=O)C(=O)N2CCCC[C@H]2C(=O)O[C@H]([C@H](C)C[C@@H]2CC[C@@H](O)[C@H](OC)C2)CC(=O)[C@H](C)/C=C(\C)[C@@H](O)[C@@H](OC)C(=O)[C@H](C)C[C@H](C)/C=C/C=C/C=C/1C [Rapamycin] + C[C@@H](Oc1cc(-c2cnn(C3CCNCC3)c2)cnc1N)c1c(Cl)ccc(F)c1Cl [Crizotinib] , reported Loewe synergy score: 5.03

Memo: Nc1ccn([C@@H]2O[C@H](CO)[C@@H](O)C2(F)F)c(=O)n1 [Gemcitabine] + CCOc1nc(NC(=O)Cc2cc(OC)ccc2OC)cc(N)c1C#N [JNK inhibitor VIII] , reported Loewe synergy score: 0.043

Memo: C=CCc1cccc(/C=N/NC(=O)CN2CCN(Cc3ccccc3)CC2)c1O [PAC-1] + CCOc1nc(NC(=O)Cc2cc(OC)ccc2OC)cc(N)c1C#N [JNK inhibitor VIII] , reported Loewe synergy score: 2.38

Memo: CC(=O)O[C@@]12CO[C@@H]1C[C@H](O)[C@@]1(C)C(=O)[C@H](O)C3=C(C)[C@@H](OC(=O)[C@H](O)[C@@H](NC(=O)OC(C)(C)C)c4ccccc4)C[C@@](O)([C@@H](OC(=O)c4ccccc4)[C@H]21)C3(C)C [Docetaxel] + C#Cc1cccc(Nc2ncnc3cc(OCCOC)c(OCCOC)cc23)c1 [Erlotinib] , reported Loewe synergy score: 0.504

Memo: Nc1ccn([C@@H]2O[C@H](CO)[C@@H](O)C2(F)F)c(=O)n1 [Gemcitabine] + Cc1cc([C@@H](C)Nc2ccccc2C(=O)O)c2nc(N3CCOCC3)cc(=O)n2c1 [AZD6482] , reported Loewe synergy score: 2.14

Memo: CC(=O)O[C@@]12CO[C@@H]1C[C@H](O)[C@@]1(C)C(=O)[C@H](O)C3=C(C)[C@@H](OC(=O)[C@H](O)[C@@H](NC(=O)OC(C)(C)C)c4ccccc4)C[C@@](O)([C@@H](OC(=O)c4ccccc4)[C@H]21)C3(C)C [Docetaxel] + CCC(=O)N1CCN(c2ccc(-n3c(=O)ccc4cnc5ccc(-c6cnc7ccccc7c6)cc5c43)cc2C(F)(F)F)CC1 [Torin1] , reported Loewe synergy score: 1.75

Memo: CCC(=O)N1CCN(c2ccc(-n3c(=O)ccc4cnc5ccc(-c6cnc7ccccc7c6)cc5c43)cc2C(F)(F)F)CC1 [Torin1] + C#Cc1cccc(Nc2ncnc3cc(OCCOC)c(OCCOC)cc23)c1 [Erlotinib] , reported Loewe synergy score: 13.7
